Test system: MDR1 (P-gp)
Assay Notes: Efflux ratio of permeability across basolateral to apical side over apical to basolateral side in dog MDCK-MDR1 cells
Assay type: ADME, cell-based, Canis lupus familiaris
Value Type: efflux ratio

(A) Cc1cc(F)c(C(=O)N[C@H]2CCOC[C@@H]2O)cc1Cc1ccc(-n2cccn2)cc1
(B) Cc1ncc(C(=O)N[C@H]2CCOC[C@@H]2O)cc1Cc1ccc(-n2cccn2)cc1
(C) Cc1c(Cc2ccc(-c3cscn3)cc2)cc(C(=O)N[C@H]2CCCC[C@@H]2O)c(=O)n1C
// TODO: order the 3 compounds above by efflux ratio, descending The reply should contain the labels ordered as requested. B, C, A
(B: 6.3, C: 2.4, A: 1.5)

(a) CO[C@@H]1CCN(c2ccc(Cc3cc(C(=O)N[C@H]4CCCC[C@@H]4O)c(=O)n(C)c3C)cc2)C1
(b) Cc1cnc(C(=O)N[C@H]2CCOC[C@@H]2O)cc1Cc1ccc(-n2cccn2)cc1
Returns: the argument ( a or b ) having the larger efflux ratio. Respond using the label that marks the chosen record. a
(a: 2.2, b: 1.4)

(a) Cc1cnc(C(=O)N[C@H]2CCOC[C@@H]2O)cc1Cc1ccc(-c2cocn2)cc1
(b) O=C(N[C@H]1CCOC[C@@H]1O)c1cc(Cc2ccc(-n3cccn3)cc2)ccn1
(c) Cc1c(Cc2ccc(-c3ccn(C)n3)cc2)cc(C(=O)N[C@H]2CCCC[C@@H]2O)c(=O)n1C
Task field, ranking: reported efflux ratio, descending order. To answer, arrange all of the labels according to the requested order. c, b, a
(c: 3.1, b: 1.8, a: 1.2)

###

Assay Notes: Ratio of fAUC in C57BL/6 mouse brain to plasma
Type: ADME, cell-free
Run Conditions: brain and plasma, read-out: Ratio AUC
Value Type: Kp uu

(P) Cc1cnc(C(=O)N[C@H]2CCOC[C@@H]2O)cc1Cc1ccc(-c2cscn2)cc1
(Q) Cc1cnc(C(=O)N[C@H]2CCOC[C@@H]2O)cc1Cc1ccc(-n2cccn2)cc1
Higher Kp uu: P or Q ? Choose, then provide that item's label. P
(P: 0.34, Q: 0.23)

###

Assay Notes: Ratio of fAUC in monkey brain to plasma
Assay type: ADME, cell-free, Macaca mulatta
Run Conditions: rhesus monkey, brain and plasma; read-out: Ratio AUC
Value Type: Kp uu
Just the number.

Form field: reported Kp uu of Cc1cnc(C(=O)N[C@H]2CCOC[C@@H]2O)cc1Cc1ccc(-c2cscn2)cc1 0.51

###

Measured On: Muscarinic acetylcholine receptor M1 (Homo sapiens, UniProt P11229)
Sequence (P11229 whole entry): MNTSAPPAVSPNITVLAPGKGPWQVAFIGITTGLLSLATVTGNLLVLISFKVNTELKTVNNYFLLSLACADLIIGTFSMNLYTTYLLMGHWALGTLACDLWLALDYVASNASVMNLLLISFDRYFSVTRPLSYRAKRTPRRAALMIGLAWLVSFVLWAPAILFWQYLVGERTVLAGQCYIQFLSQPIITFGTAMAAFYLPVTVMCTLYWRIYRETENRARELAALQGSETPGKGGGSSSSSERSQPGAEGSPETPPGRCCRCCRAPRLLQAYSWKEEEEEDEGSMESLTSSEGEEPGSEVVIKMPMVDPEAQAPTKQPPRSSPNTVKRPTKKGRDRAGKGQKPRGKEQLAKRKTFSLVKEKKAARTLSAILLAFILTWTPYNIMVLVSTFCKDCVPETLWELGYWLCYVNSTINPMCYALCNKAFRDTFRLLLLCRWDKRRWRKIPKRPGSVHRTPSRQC
Assay Notes: Partial agonist activity at muscarinic M1 receptor (unknown origin) assessed as recruitment of beta-arrestin by Path Hunter assay
Type: cell-based, CHO
Value Type: pEC50
Just so you know, pEC50 here is -log10 of the concentration in molar units; reply with that number alone.

Would you kindly share the measured pEC50 for Cc1cnc(C(=O)N[C@H]2CCOC[C@@H]2O)cc1Cc1ccc(-c2cscn2)cc1 ? 5.41

###

Assay Notes: Ratio of fAUC in brain to plasma of scopolamine-induced Wistar rat model at 0.1 mg/kg, po measured after 1 hr
Format: ADME, organism-based
Run Conditions: brain and plasma, read-out: Ratio AUC
Value Type: Kp uu at 1 h
Number only, please.

Request the reported Kp uu at 1 h associated with Cc1cnc(C(=O)N[C@H]2CCOC[C@@H]2O)cc1Cc1ccc(-c2cscn2)cc1 0.34

###

Assay Notes: Intrinsic clearance in human liver microsome
Type: ADME
Run Conditions: liver microsomes, read-out: CLH
Value Type: CLint scaled (mL/min/kg)

Cc1cnc(C(=O)N[C@H]2CCCC[C@@H]2O)cc1Cc1ccc(-n2cccn2)cc1 (single isomer, unassigned); 20
Cc1c(Cc2ccc(-c3cscn3)cc2)cc(C(=O)N[C@H]2CCCC[C@@H]2O)c(=O)n1C; 26
CO[C@@H]1CCN(c2ccc(Cc3cc(C(=O)N[C@H]4CCCC[C@@H]4O)c(=O)n(C)c3C)cc2)C1; 22

###

Assay Notes: Ratio of fAUC in rat brain to plasma
Assay type: ADME, cell-free
Run Conditions: brain and plasma, read-out: Ratio AUC
Value Type: Kp uu
Note: the reply should be a number with no unit written.

Consider the molecule Cc1cnc(C(=O)N[C@H]2CCOC[C@@H]2O)cc1Cc1ccc(-c2cscn2)cc1 and give its measured Kp uu. 0.34

###

Assay Notes: Toxicity in po dosed dog assessed as NOAEL using spray-dried dispersion formulation
Format: organism-based, Canis lupus familiaris
Run Conditions: in vivo
Value Type: NOAEL (mg/kg)
API: value field is a number in mg/kg; no unit string.

Any idea what its NOAEL is? The molecule is Cc1cnc(C(=O)N[C@H]2CCOC[C@@H]2O)cc1Cc1ccc(-c2cscn2)cc1 5

###

Assay Notes: Oral bioavailability in dog at 0.5 mg/kg
Type: ADME, organism-based, Canis lupus familiaris
Run Conditions: in vivo
Value Type: bioavailability (%)
Give the value, in units of %, as a plain number.

Quick one: bioavailability of Cc1cnc(C(=O)N[C@H]2CCOC[C@@H]2O)cc1Cc1ccc(-c2cscn2)cc1 ? 43

###

Assay Notes: Ratio of AUC in C57BL/6 mouse brain to plasma at 1 mg/kg, sc
Assay type: ADME, organism-based
Run Conditions: brain and plasma, read-out: Ratio AUC
Value Type: Kp

Cc1cnc(C(=O)N[C@H]2CCOC[C@@H]2O)cc1Cc1ccc(-n2cccn2)cc1; 0.2
Cc1cnc(C(=O)N[C@H]2CCOC[C@@H]2O)cc1Cc1ccc(-c2cscn2)cc1; 0.2

###

Assay Notes: Intrinsic clearance in human liver microsome
Assay type: ADME
Run Conditions: liver microsomes, read-out: CLH
Listed below: CLint scaled values for each entry.

The following compounds have reported results that may help.
Cc1cc(N)c(C(=O)N[C@H]2CCOC[C@@H]2O)cc1Cc1ccc(-n2cccn2)cc1 (racemic); 23 mL/min/kg
O=C(N[C@H]1CCOC[C@@H]1O)c1cc(Cc2ccc(-n3cccn3)cc2)ccn1; < 8 mL/min/kg
Cc1c(Cc2ccc(-c3ccn(C)n3)cc2)cc(C(=O)N[C@H]2CCCC[C@@H]2O)c(=O)n1C; 13 mL/min/kg
Cc1cc(F)c(C(=O)N[C@H]2CCOC[C@@H]2O)cc1Cc1ccc(-n2cccn2)cc1; < 10 mL/min/kg
Cc1ccc(C(=O)N[C@H]2CCOC[C@@H]2O)cc1Cc1ccc(-n2cccn2)cc1; < 8 mL/min/kg
Cc1cnc(C(=O)N[C@H]2CCOC[C@@H]2O)cc1Cc1ccc(-n2cccn2)cc1; < 8 mL/min/kg
Cc1c(Cc2ccc(-c3cocn3)cc2)cc(C(=O)N[C@H]2CCCC[C@@H]2O)c(=O)n1C; 17 mL/min/kg
Cc1c(Cc2ccc(-n3cccn3)cc2)cc(C(=O)N[C@H]2CCCC[C@@H]2O)c(=O)n1C; 20 mL/min/kg
Cc1c(Cc2ccc(-n3cccn3)cc2)cc(C(=O)N[C@H]2CCOC[C@@H]2O)c(=O)n1C; < 8 mL/min/kg
Cc1cnc(C(=O)N[C@H]2CCOC[C@@H]2O)cc1Cc1ccc(-c2cscn2)cc1; < 8 mL/min/kg

Form field: reported CLint scaled of Cc1ncc(C(=O)N[C@H]2CCOC[C@@H]2O)cc1Cc1ccc(-n2cccn2)cc1 < 8 mL/min/kg

###

Assay Notes: Permeability of compound in MDCKII-LE cells
Assay type: ADME, cell-based, Canis lupus familiaris
Run Conditions: dog, MDCK; read-out: permeability
Value Type: Papp (×10⁻⁶ cm/s)

Reference set (4 entries):
Cc1cnc(C(=O)N[C@H]2CCOC[C@@H]2O)cc1Cc1ccc(-c2cocn2)cc1; 32
Cc1cnc(C(=O)N[C@H]2CCOC[C@@H]2O)cc1Cc1ccc(-n2cccn2)cc1; 21
Cc1c(Cc2ccc(-c3ccn(C)n3)cc2)cc(C(=O)N[C@H]2CCCC[C@@H]2O)c(=O)n1C; 13
Cc1cnc(C(=O)N[C@H]2CCCC[C@@H]2O)cc1Cc1ccc(-n2cccn2)cc1 (single isomer, unassigned); 19

(1) CO[C@@H]1CCN(c2ccc(Cc3cc(C(=O)N[C@H]4CCCC[C@@H]4O)c(=O)n(C)c3C)cc2)C1
(2) Cc1ccc(C(=O)N[C@H]2CCOC[C@@H]2O)cc1Cc1ccc(-n2cccn2)cc1
(3) Cc1ncc(C(=O)N[C@H]2CCOC[C@@H]2O)cc1Cc1ccc(-n2cccn2)cc1
Put the items in sequence by Papp, from largest down. Returns: the labels arranged in the requested order. 1, 2, 3
(1: 23 ×10⁻⁶ cm/s, 2: 16 ×10⁻⁶ cm/s, 3: 8 ×10⁻⁶ cm/s)

###

Measured On: cGMP-dependent 3',5'-cyclic phosphodiesterase (Homo sapiens, UniProt O00408)
Sequence (O00408 whole entry): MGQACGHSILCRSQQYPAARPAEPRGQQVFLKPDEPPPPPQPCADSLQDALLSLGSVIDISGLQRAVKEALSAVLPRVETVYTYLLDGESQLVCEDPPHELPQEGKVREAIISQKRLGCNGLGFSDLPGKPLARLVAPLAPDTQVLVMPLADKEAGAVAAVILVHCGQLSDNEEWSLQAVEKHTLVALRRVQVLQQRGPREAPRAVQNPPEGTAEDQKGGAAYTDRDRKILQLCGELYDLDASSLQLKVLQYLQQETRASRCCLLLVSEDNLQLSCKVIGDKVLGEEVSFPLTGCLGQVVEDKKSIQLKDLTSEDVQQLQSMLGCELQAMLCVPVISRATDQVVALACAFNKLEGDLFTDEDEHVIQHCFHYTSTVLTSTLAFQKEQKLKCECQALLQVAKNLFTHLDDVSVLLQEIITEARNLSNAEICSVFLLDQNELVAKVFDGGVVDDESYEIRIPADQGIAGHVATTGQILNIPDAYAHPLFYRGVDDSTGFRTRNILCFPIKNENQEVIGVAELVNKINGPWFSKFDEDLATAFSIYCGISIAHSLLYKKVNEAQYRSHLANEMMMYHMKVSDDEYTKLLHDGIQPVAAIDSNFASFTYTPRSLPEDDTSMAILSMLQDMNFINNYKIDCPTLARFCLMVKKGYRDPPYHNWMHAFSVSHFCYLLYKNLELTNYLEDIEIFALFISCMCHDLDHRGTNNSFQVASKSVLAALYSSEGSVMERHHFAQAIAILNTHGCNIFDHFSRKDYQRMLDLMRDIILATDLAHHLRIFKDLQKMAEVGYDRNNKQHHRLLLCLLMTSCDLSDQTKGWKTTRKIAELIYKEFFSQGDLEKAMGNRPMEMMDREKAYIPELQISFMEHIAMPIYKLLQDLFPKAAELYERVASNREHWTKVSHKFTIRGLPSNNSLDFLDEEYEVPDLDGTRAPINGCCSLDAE
Value Type: pIC50
As a rule, pIC50 stands for the negative log10 of the concentration, concentration in M.

Please look up its pIC50: Cc1cnc(C(=O)N[C@H]2CCOC[C@@H]2O)cc1Cc1ccc(-c2cscn2)cc1 5.51

###

Measured On: Dual 3',5'-cyclic-AMP and -GMP phosphodiesterase 11A (Homo sapiens, UniProt Q9HCR9)
Sequence (Q9HCR9 whole entry): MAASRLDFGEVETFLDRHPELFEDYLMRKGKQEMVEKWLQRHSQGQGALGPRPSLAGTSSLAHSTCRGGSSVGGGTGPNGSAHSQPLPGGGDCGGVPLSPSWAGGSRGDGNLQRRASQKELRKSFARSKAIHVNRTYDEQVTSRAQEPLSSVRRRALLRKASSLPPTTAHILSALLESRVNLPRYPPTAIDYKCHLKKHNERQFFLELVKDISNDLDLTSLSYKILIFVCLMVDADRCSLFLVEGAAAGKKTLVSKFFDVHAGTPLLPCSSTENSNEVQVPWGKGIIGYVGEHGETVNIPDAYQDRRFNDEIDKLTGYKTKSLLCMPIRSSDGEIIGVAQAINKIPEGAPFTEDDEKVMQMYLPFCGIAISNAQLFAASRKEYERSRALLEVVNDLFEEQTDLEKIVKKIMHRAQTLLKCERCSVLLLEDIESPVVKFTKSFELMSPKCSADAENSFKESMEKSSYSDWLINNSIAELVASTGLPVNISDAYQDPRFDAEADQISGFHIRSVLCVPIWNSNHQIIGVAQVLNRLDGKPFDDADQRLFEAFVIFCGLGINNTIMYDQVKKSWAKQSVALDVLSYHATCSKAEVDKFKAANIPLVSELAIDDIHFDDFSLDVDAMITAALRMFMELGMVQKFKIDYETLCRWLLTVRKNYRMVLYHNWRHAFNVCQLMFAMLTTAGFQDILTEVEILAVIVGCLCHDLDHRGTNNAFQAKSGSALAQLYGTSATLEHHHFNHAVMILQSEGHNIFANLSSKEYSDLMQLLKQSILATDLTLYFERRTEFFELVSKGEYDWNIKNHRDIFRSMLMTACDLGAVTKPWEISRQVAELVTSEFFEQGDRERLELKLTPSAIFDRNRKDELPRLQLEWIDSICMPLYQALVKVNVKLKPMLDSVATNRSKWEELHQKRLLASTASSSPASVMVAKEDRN
Value Type: pIC50
Units for pIC50: none; it is -log10 of a concentration expressed in mol/L.

What does the data say about its pIC50? Entry: Cc1cnc(C(=O)N[C@H]2CCOC[C@@H]2O)cc1Cc1ccc(-c2cscn2)cc1 5.31

Sourced from ChEMBL document CHEMBL4715734
